Readings of GI50 for the listed molecules
# Test system: LXFL 529
# PROCEDURE TEXT: NCI tumour cell line growth inhibition, 48 h
Activity calls are given as the source filed them. Rule as the data show it: active = GI50 up to about 1.1 µM and inactive = higher.

Some molecules with recorded GI50:
CC(=O)NC(CCCCN(Cc1ccccc1)C(=O)N(CCCl)N=O)C(=O)NCc1ccccc1 (stereo not given)	> 100 µM (inactive)
CC1CCC2c3c([nH]c4ccccc34)C3C(=O)N(c4ccccc4)C(=O)C3C2C1 (stereo not given)	> 250 µM (inactive)
O=C(/C=C/c1ccccc1O)C(c1ccccc1)c1ccccc1	> 100 µM (inactive)
Cc1cc(Cl)ccc1NC(=O)C(=O)Cc1nc2ccc(C(=O)c3ccccc3)cc2nc1O	48.6 µM (inactive)
COC(=O)N/N=C/c1oc(-c2cccc([N+](=O)[O-])c2)c(-c2cccc([N+](=O)[O-])c2)c1[N+](=O)[O-]	> 100 µM (inactive)
Cc1cn(C2CC(O)C(COC(=O)c3ccccc3)O2)c(=O)[nH]c1=O (stereo not given)	> 100 µM (inactive)
Cc1nc2ccc(NCCN(C)C)c3c(=O)c4ccccc4n1c23	6.56 µM (inactive)
COc1ccc(S(=O)(=O)N/N=C(\C)CN2C(=O)c3ccccc3C2=O)cc1	> 100 µM (inactive)
COC(=O)C(Cc1nc2ccccc2nc1O)C(=O)C(=O)Nc1ccc(F)cc1 (stereo not given)	15.7 µM (inactive)

Now for another entry.
**Query** Determine its reported GI50: Cc1cc(N(CCC#N)CCC#N)ccc1/N=N/c1cccc(C(=O)O)c1
**Result** > 100 µM (inactive)

* * *

# Test system: HOP-62
# PROCEDURE TEXT: NCI tumour cell line growth inhibition, 48 h
Active and inactive are the calls of the source. Cut-off read from the data, not from the text of the source: active = GI50 up to about 1.1 µM and inactive = higher.
// allowed return values: true for active, false for inactive

**Query** Hi, sorry to bother you, what did the test record for COC(=O)c1ccccc1CC1Cc2cc3c(cc2C1=O)CCC3 (stereo not drawn) ?
**Result** false

**Query** Record request — test call for O=C(Cn1c(=O)oc2ccc(C(=O)c3cccc(Cl)c3)cc21)c1ccccc1
**Result** false

* * *

# System: SF-539
# PROCEDURE TEXT: NCI tumour cell line growth inhibition, 48 h
Active and inactive are the calls of the source. Rule as the data show it: active = GI50 up to about 1.1 µM and inactive = higher.
Reported GI50 values follow for various molecules

CC(C)[Si](Oc1cc2c3c(ccc2c(O)c1[C@@H](C)CO[Si](C)(C)C(C)(C)C)C(C)(C)CCC3)(C(C)C)C(C)C	> 100 µM (inactive)
c1ccc(C2C3=C(CCCC3)Nc3nc4cc5ccccc5cc4n32)cc1 (stereo not given)	> 100 µM (inactive)
O=S(=O)(O)CCSSCCS(=O)(=O)O	> 1000 µM (inactive)
[N-]=[N+]=C(C(=O)N1CCCC1=O)S(=O)(=O)c1ccccc1	98.6 µM (inactive)
O=c1[nH]nc(-c2ccccc2)n1/N=C/c1c(O)ccc2ccccc12	31.2 µM (inactive)

**Query** Please give the documented GI50 of CCOC(=O)c1nc2ccccc2nc1Nc1cc(OC)c(OC)c(OC)c1
**Result** > 100 µM (inactive)

**Query** Tell me GI50 reported for c1ccc(C2=Nn3c(CCCCCCCCc4nnc5n4N=C(c4ccccc4)CS5)nnc3SC2)cc1
**Result** 3.45 µM (inactive)

**Query** Give the measured GI50 for CC1(n2nc(-c3ccccc3)n(-c3ccccc3)c2=O)CSC1
**Result** > 100 µM (inactive)

**Query** Supply measured GI50 of C/C(=N\N(C)C)c1sc(-n2nc(-c3ccccc3)cc2-c2ccccc2)nc1C in your reply.
**Result** > 100 µM (inactive)

**Query** // Input: COc1ccc(OC)c2sc(N3C(=O)/C(=C/c4ccc(Cl)cc4)N=C3c3ccccc3)nc12 . Output its GI50 only.
**Result** > 100 µM (inactive)

* * *

Entries and their GI50 values follow.
# Tested on: CAKI-1
# PROCEDURE TEXT: NCI tumour cell line growth inhibition, 48 h
Calls of active or inactive are those of the source. Cut-off read from the data, not from the text of the source: active = GI50 up to about 1.1 µM and inactive = higher.

CCOc1ccccc1NC(=O)CCC(=O)NN	> 100 µM (inactive)

**Query** Quickly give me recorded GI50 for c1ccc(C2=Nn3c(CCCCCCCCc4nnc5n4N=C(c4ccccc4)CS5)nnc3SC2)cc1
**Result** 41.2 µM (inactive)

**Query** Specify GI50 for CCC1(O)CC(CCN(Cc2ccccc2)C(=O)OCc2ccccc2)C(OCc2ccccc2)C1O (stereo unspecified) and stop.
**Result** 25.3 µM (inactive)

**Query** Could you please provide reported GI50 for O=CC1CCCc2ccccc21 (stereo unspecified) ? Thanks!
**Result** > 100 µM (inactive)

**Query** Consider the compound Ic1ncnc2c1ncn2C1CCCO1 (stereo unspecified) . State its measured GI50.
**Result** > 100 µM (inactive)

**Query** Kindly indicate its recorded GI50. Item: O=C1Nc2ccccc2/C1=C1/Nc2ccccc2/C1=N\OCCNCC(O)C(O)C(O)C(O)CO (stereo unspecified)
**Result** 38.5 µM (inactive)

* * *

# System: OVCAR-8
# PROCEDURE TEXT: NCI tumour cell line growth inhibition, 48 h
The source made the active and inactive calls. Cut-off read from the data, not from the text of the source: active = GI50 up to about 1.1 µM and inactive = higher.
Outcomes you can answer with include only these: t for active, f for inactive

As a guide, the following entries are already answered.
CC(C)=CCCC1(C)C=Cc2c(c(C)cc3c2[nH]c2cc(O)ccc23)O1 (stereo unspecified)	f
CN(CCCNCc1ccccn1)Cc1ccccc1O	f
Cc1ccc(S(=O)(=O)NC(=O)NCCc2c[nH]cn2)cc1	f
COc1cc(C(O)CCBr)c(OC)cc1C (stereo unspecified)	f
COc1cc(C2C3=C(CCC3=O)Oc3cc4c(cc32)OCO4)cc(OC)c1OC (stereo unspecified)	t

**Query** Outcome logged for O=C(/C=C/c1ccc(Cl)cc1)c1cccs1 in this assay:
**Result** f

**Query** For C[C@@H]1OC(=O)C[C@H]2CC(=O)N(CCC3CN(C(=O)c4ccccc4)c4ccccc43)C[C@@H]21 (stereo partly specified) , which call appears in the assay record?
**Result** f

**Query** Hey, what did the test say about COc1ccc(/C(Cl)=C(\CN(C)C)c2ccc(OC)c(OC)c2)cc1OC.[B] ?
**Result** f

**Query** Tell me the assay call for N#CCCN(CCCN(C(=O)Nc1ccccc1)c1ccccc1)C(=O)Nc1ccccc1 please.
**Result** f

**Query** Tell me the recorded outcome of this test for c1ccc(C2=Nn3c(CCCCCCCCc4nnc5n4N=C(c4ccccc4)CS5)nnc3SC2)cc1 .
**Result** f

**Query** Call for entry COc1ccc(Br)c(C(=O)N2CCc3ccccc32)c1N :
**Result** f

* * *

# System: LOX IMVI
# PROCEDURE TEXT: NCI tumour cell line growth inhibition, 48 h
Active and inactive are the calls of the source. Rule as the data show it: active = GI50 up to about 1.1 µM and inactive = higher.
TEST READOUT: GI50

Cc1ccc(S(=O)(=O)NC(=O)NCCc2c[nH]cn2)cc1	> 100 µM (inactive)
O=c1[nH]n(Cc2ccccn2)c2ccc([N+](=O)[O-])cc12	> 100 µM (inactive)
CC1=C(C(=O)NNC(=O)C(N)=O)CC(C(=O)NNC(=O)C(N)=O)=C(C)N1	> 100 µM (inactive)
COc1ccc(/C=N/NC(=O)c2ccc(O)c(CN(C)C)c2)cc1	> 100 µM (inactive)
CCCCCCCCCCCCCCCC[N+](C)(C)Cc1ccc(F)cc1	1.47 µM (inactive)
O=C(CCC/C(CC(=O)c1ccc(Br)cc1)=N\O)Nc1ccccc1	> 100 µM (inactive)

**Query** Return the recorded GI50 value; entry: C/C(=N\N(C)C)c1sc(-n2nc(-c3ccccc3)cc2-c2ccccc2)nc1C
**Result** 16.3 µM (inactive)

**Query** Give a short answer stating reported GI50 for O=S(=O)(NC1CCCCC1)c1ccc2c(c1)OCCOCCOCCOCCO2 .
**Result** > 100 µM (inactive)

**Query** Please give measured GI50 of the following entry: OC(c1nc2ccccc2s1)(C(F)(F)F)C(F)(F)F
**Result** > 100 µM (inactive)

**Query** Quickly give me recorded GI50 for O=CC1CCCc2ccccc21 (configuration not stated)
**Result** > 44.1 µM (inactive)

**Query** # return recorded GI50 for entry O=C1C(Cl)C(c2cc3cc(Br)ccc3nc2Cl)N1c1c(Cl)cccc1Cl (configuration not stated)
**Result** 3.66 µM (inactive)

**Query** Given O=C(OCc1ccccc1CN1CCOCC1)c1ccc(Br)cc1 , respond with its GI50.
**Result** 55 µM (inactive)

**Query** Specify GI50 for CN(C)c1ncnc2c1ncn2CCn1cnc2c(N(C)C)ncnc21 and stop.
**Result** > 100 µM (inactive)

**Query** Read off the recorded GI50 for c1ccc(C2=Nn3c(CCCCCCCCc4nnc5n4N=C(c4ccccc4)CS5)nnc3SC2)cc1
**Result** 45.4 µM (inactive)

**Query** Item CC(C)(C)c1ccc2c(c1)S(=O)(=O)Nc1cccc(c1)NS(=O)(=O)c1cc(C(C)(C)C)ccc1OCCOCCO2 : provide GI50
**Result** > 100 µM (inactive)

**Query** Fill in reported GI50 for this entry: O=C(/C=C/c1ccccc1O)C(c1ccccc1)c1ccccc1
**Result** 24.1 µM (inactive)
